# reported IC50; entries follow
test: Antiproliferative activity against human QSG7701 cells after 48 hrs by MTT assay; type: cell-based; conditions: QSG7701, 48 h
The reply should be a number in µM, with the unit left off.

For the compound COc1cc(NS(C)(=O)=O)ccc1Nc1c2ccccc2nc2ccccc12 [AMSACRINE] , report IC50.
6.43

For the compound COc1ccc2nc3cc(Cl)ccc3c(NCc3nc4ccccc4n3CCN(C)C)c2n1 , report IC50.
21.2

In the following, a different compound is considered.
For the compound COc1ccc2nc3cc(Cl)ccc3c(NCc3nc4ccccc4[nH]3)c2n1 , report IC50.
29.4

----------
test: Safety index, ratio of compound IC50 to m-AMSA IC50 for human QSG7701 cells; assay type: ADME, cell-based; conditions: read-out: Ratio IC50
value.type: selectivity ratio

For the compound COc1ccc2nc3cc(Cl)ccc3c(NCc3nc4ccccc4[nH]3)c2n1 , report selectivity ratio.
> 3

----------
species: Homo sapiens; test: Inhibition of human topoisomerase-2 at 50 to 100 uM using supercoiled pBR322 DNA as substrate after 10 to 15 mins by ethidium bromide staining based electrophoresis
Calls of active or inactive are those of the source. No cut-off for these calls is given here.
value.type: topoisomerase II inhibition (active/inactive)

For the compound COc1ccc(Nc2c3ccc(Cl)cc3nc3ccc(OC)nc23)cc1 , report topoisomerase II inhibition (active/inactive).
Active

For the compound COc1ccc2nc3cc(Cl)ccc3c(NCc3nc4ccccc4n3CCN(C)C)c2n1 , report topoisomerase II inhibition (active/inactive).
Active

For the compound COc1ccc2nc3cc(Cl)ccc3c(NCc3nc4ccccc4[nH]3)c2n1 , report topoisomerase II inhibition (active/inactive).
Active

For the compound COc1ccc2nc3cc(Cl)ccc3c(Nc3ccc(F)cc3)c2n1 , report topoisomerase II inhibition (active/inactive).
Active

For the compound COc1ccc2nc3cc(Cl)ccc3c(Nc3ccccc3Cl)c2n1 , report topoisomerase II inhibition (active/inactive).
Active

In the following, a different compound is considered.
For the compound COc1ccc2nc3cc(Cl)ccc3c(Nc3ccc(C)cc3C)c2n1 , report topoisomerase II inhibition (active/inactive).
Active

----------
# reported IC50; entries follow
system: HepG2; test: Antiproliferative activity against human HepG2 cells after 48 hrs by MTT assay; format: functional, cell-based; conditions: HepG2, 48 h

Example results:
For the compound COc1ccc2nc3cc(Cl)ccc3c(Nc3ccccc3Cl)c2n1 , report IC50.
> 20 µM

For the compound COc1ccc2nc3cc(Cl)ccc3c(Nc3ccc(F)cc3)c2n1 , report IC50.
> 20 µM

For the compound COc1ccc2nc3cc(Cl)ccc3c(NCc3nc4ccccc4[nH]3)c2n1 , report IC50.
6.62 µM

Further cases:
For the compound COc1ccc2nc3cc(Cl)ccc3c(Nc3ccc(C)cc3C)c2n1 , report IC50.
> 20 µM

For the compound COc1ccc(Nc2c3ccc(Cl)cc3nc3ccc(OC)nc23)cc1 , report IC50.
> 20 µM

For the compound COc1cc(NS(C)(=O)=O)ccc1Nc1c2ccccc2nc2ccccc12 [AMSACRINE] , report IC50.
5.21 µM

For the compound COc1ccc2nc3cc(Cl)ccc3c(NCc3nc4ccccc4[nH]3)c2c1 , report IC50.
> 20 µM

For the compound CC[C@@]1(O)C(=O)OCc2c1cc1n(c2=O)Cc2cc3ccccc3nc2-1 [CAMPTOTHECIN] , report IC50.
4.92 µM

For the compound COc1ccc2nc3cc(Cl)ccc3c(NCc3nc4ccccc4n3CCN(C)C)c2n1 , report IC50.
> 20 µM

For the compound COc1ccc2nc3cc(Cl)ccc3c(Nc3ccccc3F)c2n1 , report IC50.
> 20 µM

For the compound COc1ccc2nc3cc(Cl)ccc3c(Nc3cccc(F)c3)c2n1 , report IC50.
> 20 µM

For the compound COc1ccc2nc3cc(Cl)ccc3c(Nc3ccncc3)c2n1 , report IC50.
> 20 µM

----------
organism: Homo sapiens; assay: Inhibition of human topoisomerase-2 at 10 uM using supercoiled pBR322 DNA as substrate after 10 to 15 mins by ethidium bromide staining based electrophoresis relative to control
value.type: inhibition

For the molecule COc1cc(NS(C)(=O)=O)ccc1Nc1c2ccccc2nc2ccccc12 , report inhibition.
56.9%

For the molecule COc1ccc2nc3cc(Cl)ccc3c(Nc3ccccc3Cl)c2n1 , report inhibition.
> 40%

For the molecule COc1ccc2nc3cc(Cl)ccc3c(Nc3ccc(F)cc3)c2n1 , report inhibition.
> 40%

For the molecule COc1ccc2nc3cc(Cl)ccc3c(Nc3cccc(F)c3)c2n1 , report inhibition.
> 40%

For the molecule COc1ccc2nc3cc(Cl)ccc3c(Nc3ccncc3)c2n1 , report inhibition.
> 40%

In the following, a different molecule is considered.
For the molecule COc1ccc2nc3cc(Cl)ccc3c(NCc3nc4ccccc4n3CCN(C)C)c2n1 , report inhibition.
75.1%

----------
species on record: Homo sapiens; assay: Inhibition of human topoisomerase-2 at 50 to 100 uM using supercoiled pBR322 DNA as substrate after 10 to 15 mins by ethidium bromide staining based electrophoresis
The source made the active and inactive calls. No cut-off for these calls is given here.
value.type: topoisomerase II inhibition (active/inactive)

For the compound COc1ccc2nc3cc(Cl)ccc3c(Nc3ccccc3F)c2n1 , report topoisomerase II inhibition (active/inactive).
Active

For the compound COc1ccc2nc3cc(Cl)ccc3c(Nc3cccc(F)c3)c2n1 , report topoisomerase II inhibition (active/inactive).
Active

For the compound COc1ccc2nc3cc(Cl)ccc3c(Nc3ccncc3)c2n1 , report topoisomerase II inhibition (active/inactive).
Active
